System: Ctenocephalides felis
Settings: 8 h; data from laboratory 1
Description: b) Ctenocephalides felis Adulticide Assay: C. felis Single Dose Screen Mortality of fleas was the primary endpoint in the assay. Fleas were considered dead if they didn't move or were on their sides and unable to walk or right themselves. […] The concentration chosen (1.26 μg/cm^2) was higher than that known to kill 90% of cat fleas (LC90) using the reference compound, permethrin. The test species was the cat flea (Ctenocephalides felis). […]
Measured parameter: C. felis Mortality (%) 8 h
Answer with a number only, understood to be in %.

Example cases with answers are listed next.
* CC(=NNc1ccc(Cl)cc1)c1ccccc1NS(=O)(=O)C(F)(F)F | 23
* CC(=Nn1ncc2ccccc21)c1cc(Cl)ccc1NS(=O)(=O)C(F)(F)F | 2
* CC(=NN(C)C)c1cc(Cl)ccc1NS(=O)(=O)C(F)(F)F | 3
* O=S(=O)(Nc1ccc(Cl)cc1C1=NN(c2ccccc2)CC1)C(F)(F)F | 0
* CC(=NNS(=O)(=O)c1ccc(C)cc1)c1cc(Cl)ccc1NS(=O)(=O)C(F)(F)F | 5

Request the reported C. felis Mortality (%) 8 h associated with `CC(=NN(C)c1ccccc1)c1ccc(NS(=O)(=O)C(F)(F)F)cc1` 8

Consider the compound `CN(N=C(c1cc(Cl)ccc1NS(=O)(=O)C(F)(F)F)C1CCCCC1)c1ccccc1` and give its measured C. felis Mortality (%) 8 h. 7

Please give the measured C. felis Mortality (%) 8 h for this compound: `CC(=NNC(=O)Nc1ccccc1Cl)c1cc(Cl)ccc1NS(=O)(=O)C(F)(F)F` 10

---

test system: Ctenocephalides felis; test: Ctenocephalides felis adulticide assay: C. felis dose response (LC50)
Measured parameter: C. felis LC50 (ppm)
The reply should be a number in ppm, with the unit left off.

- CCN(N=C(C)c1cc(Cl)ccc1NS(=O)(=O)C(F)(F)F)c1ccc(Cl)c(Cl)c1 [Compound 71]: 2.5
- CC(=NN(C)C(=O)c1ccc(Cl)cc1)c1cc(Cl)ccc1NS(=O)(=O)C(F)(F)F [Compound 59]: 2.9
- CC(=NN1CCOC1=O)c1cc(Cl)ccc1NS(=O)(=O)C(F)(F)F [Compound 23]: 2.0

Query molecule follows.
Look up C. felis LC50 for this molecule: CCCCCC(=O)N(CCC#N)/N=C(\C)c1cc(Cl)ccc1NS(=O)(=O)C(F)(F)F [Compound 224] 3.54

---

tested on: Rhipicephalus sanguineus; experiment: Rapid screening protocol for topical application on brown dog ticks (% mortality); settings: data from laboratory 2
Measured parameter: R. sanguineus Mortality (%) 24 h
API: value field is a number in %; no unit string.

For the compound `CCCCCC(=O)N(CCC#N)/N=C(\C)c1cc(Cl)ccc1NS(=O)(=O)C(F)(F)F` , what R. sanguineus Mortality (%) 24 h is on record? 100

---

test system: Ctenocephalides felis; conditions: 8 h; data from laboratory 1
# Y = C. felis Mortality (%) 8 h below 4% (exclusive); N = C. felis Mortality (%) 8 h at/above 4%

- O=S(=O)(Nc1ccc(Cl)cc1-c1ccn(-c2ccccc2)n1)C(F)(F)F: N

# check: C. felis Mortality (%) 8 h < 4% for `CC(=NN(c1ccccc1F)C(C)C)c1cc(Cl)ccc1NS(=O)(=O)C(F)(F)F` N

Please state whether C. felis Mortality (%) 8 h is below 4% for `CC(=NNc1ccc(Cl)cc1)c1ccc(C(F)(F)F)cc1NS(=O)(=O)C(F)(F)F` Y

Where do the numbers come from? From patent US20070238700A1.
